ASSAYED SYSTEM: human type 2 5α-reductase (Homo sapiens, UniProt P31213)
Construct: microsomes
Sequence (P31213 whole entry): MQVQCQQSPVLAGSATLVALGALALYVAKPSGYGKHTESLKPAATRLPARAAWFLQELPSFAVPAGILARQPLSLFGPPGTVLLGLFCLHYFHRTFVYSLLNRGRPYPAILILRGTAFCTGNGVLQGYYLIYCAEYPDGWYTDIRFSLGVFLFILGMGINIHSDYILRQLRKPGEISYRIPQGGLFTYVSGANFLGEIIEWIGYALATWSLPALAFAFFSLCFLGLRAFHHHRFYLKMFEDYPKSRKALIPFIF
RUN DESCRIPTION: Inhibition of human type 2 steroid 5α-reductase (microsomes; testosterone to DHT conversion)
ASSAY SETUP: 20 min preincubation, pH 6.0, 8 nM testosterone, 20-40 min, 1 mM NADPH; read-out: IC50 Human Type 2 5AR
pIC50: −log10 of the molar value.
Give pIC50 for every item shown.

Worked cases, pIC50 given:
INSERT INTO results (compound, assayed_system, measure_name, result) VALUES
  ('CN1C(=O)CC[C@]2(C)[C@H]3CC[C@]4(C)[C@@H](C(=O)NC5(c6ccc(Cl)cc6)CCCC5)CC[C@H]4[C@@H]3CC[C@@H]12', 'human type 2 5α-reductase (Homo sapiens, UniProt P31213)', 'pIC50', '> 9.00'),
  ('CC(C)(C)c1ccc(C2(NC(=O)[C@H]3CC[C@H]4[C@@H]5CC[C@H]6NC(=O)C=C[C@]6(C)[C@H]5CC[C@]34C)CCSCC2)cc1', 'human type 2 5α-reductase (Homo sapiens, UniProt P31213)', 'pIC50', '> 9.00'),
  ('CCC1(CC)CC1(NC(=O)[C@H]1CC[C@H]2[C@@H]3CC[C@H]4NC(=O)C=C[C@]4(C)[C@H]3CC[C@]12C)c1ccc(-c2ccccc2)cc1 (stereo partly drawn)', 'human type 2 5α-reductase (Homo sapiens, UniProt P31213)', 'pIC50', '> 9.00'),
  ('C[C@]12C=CC(=O)N[C@@H]1CC[C@@H]1[C@@H]2CC[C@]2(C)[C@@H](C(=O)NC3(c4ccc(Cl)cc4Cl)CC3)CC[C@@H]12', 'human type 2 5α-reductase (Homo sapiens, UniProt P31213)', 'pIC50', '> 9.00'),
  ('CC(C)(C)c1ccc(C(C)(C)C)c(NC(=O)[C@H]2CC[C@H]3[C@@H]4CC[C@H]5NC(=O)CC[C@]5(C)[C@H]4CC[C@]23C)c1', 'human type 2 5α-reductase (Homo sapiens, UniProt P31213)', 'pIC50', '> 9.00'),
  ('CC(C)(C)c1ccc(C2(NC(=O)[C@H]3CC[C@H]4[C@@H]5CC[C@H]6NC(=O)C=C[C@]6(C)[C@H]5CC[C@]34C)CCC(C(C)(C)C)CC2)cc1 (stereo partly drawn)', 'human type 2 5α-reductase (Homo sapiens, UniProt P31213)', 'pIC50', '> 9.00');

# batch size: 6; output pIC50 per entry
1. C[C@]12C=CC(=O)N[C@@H]1CC[C@@H]1[C@@H]2CC[C@]2(C)[C@@H](C(=O)NC3(c4ccc(F)cc4)CCCCC3)CC[C@@H]12
2. C[C@]12C=CC(=O)N[C@@H]1CC[C@@H]1[C@@H]2CC[C@]2(C)[C@@H](C(=O)NC3(c4ccc5c(c4)OCO5)CCCCC3)CC[C@@H]12
3. CC(C)(C)c1ccc(C2(NC(=O)[C@H]3CC[C@H]4[C@@H]5CC[C@H]6NC(=O)C=C[C@]6(C)[C@H]5CC[C@]34C)CCCC2)cc1
4. CC(C)(C)c1ccc(C2(NC(=O)[C@H]3CC[C@H]4[C@@H]5CC[C@H]6NC(=O)C=C[C@]6(C)[C@H]5CC[C@]34C)CCCCC2)cc1
5. CN1C(=O)CC[C@]2(C)[C@H]3CC[C@]4(C)[C@@H](C(=O)Nc5cc(C(F)(F)F)ccc5C(F)(F)F)CC[C@H]4[C@@H]3CC[C@@H]12
6. CCC1(CC)CC1(NC(=O)[C@H]1CC[C@H]2[C@@H]3CC[C@H]4NC(=O)C=C[C@]4(C)[C@H]3CC[C@]12C)c1ccc(C(F)(F)F)cc1 (stereo partly drawn)

[reply]
1: > 9.00; 2: > 9.00; 3: > 9.00; 4: > 9.00; 5: > 9.00; 6: > 9.00
